PROTOCOL DESCRIPTION: Eribulin plasma pharmacokinetics
Format: in vivo, human
COND: human, plasma, intravenous, 60 mg, T1/2, Dose level 5: eribulin mesylate 1.4 with cisplatin 60 mg m^−2, first dose, N=6, mean (s.d.)
Counter-ions that a name gives are not always drawn.
REPORTED METRIC: half-life (h)
Expressed in h, but write only the number.

Q. Name the reported half-life value associated with the compound C=C1C[C@@H]2CC[C@@]34C[C@H]5O[C@H]6[C@@H](O3)[C@H]3O[C@H](CC[C@@H]3O[C@H]6[C@H]5O4)CC(=O)C[C@@H]3[C@@H](OC)[C@@H](C[C@H](O)CN)O[C@H]3C[C@H]3O[C@@H](CC[C@@H]1O2)C[C@@H](C)C3=C [Eribulin mesylate]
A. 36.5

###

PROTOCOL DESCRIPTION: Eribulin plasma pharmacokinetics
Assay type: in vivo, human
COND: human, plasma, intravenous, 60 mg, T1/2, Dose level 3: eribulin mesylate 1.2 with cisplatin 60 mg m^−2, first dose, N=4, mean (s.d.)
Where a name gives a salt, the structure may show the parent alone.
REPORTED METRIC: half-life (h)
Expressed in h, but write only the number.

Q. Name the reported half-life value associated with the compound C=C1C[C@@H]2CC[C@@]34C[C@H]5O[C@H]6[C@@H](O3)[C@H]3O[C@H](CC[C@@H]3O[C@H]6[C@H]5O4)CC(=O)C[C@@H]3[C@@H](OC)[C@@H](C[C@H](O)CN)O[C@H]3C[C@H]3O[C@@H](CC[C@@H]1O2)C[C@@H](C)C3=C [Eribulin mesylate]
A. 40.8

###

PROTOCOL DESCRIPTION: Eribulin plasma pharmacokinetics
Assay type: in vivo, human
COND: human, plasma, intravenous, 60 mg, Vss, Dose level 5: eribulin mesylate 1.4 with cisplatin 60 mg m^−2, first dose, N=6, mean (s.d.)
Structures can show the parent of a compound that is named as a salt.
REPORTED METRIC: Vd
Give your result as the value with the unit written after it.

Q. Name the reported Vd value associated with the compound C=C1C[C@@H]2CC[C@@]34C[C@H]5O[C@H]6[C@@H](O3)[C@H]3O[C@H](CC[C@@H]3O[C@H]6[C@H]5O4)CC(=O)C[C@@H]3[C@@H](OC)[C@@H](C[C@H](O)CN)O[C@H]3C[C@H]3O[C@@H](CC[C@@H]1O2)C[C@@H](C)C3=C [Eribulin mesylate]
A. 77.7 L

###

PROTOCOL DESCRIPTION: Eribulin plasma pharmacokinetics
Assay type: in vivo, human
COND: human, plasma, intravenous, 60 mg, AUC0-inf, Dose level 5: eribulin mesylate 1.4 with cisplatin 60 mg m^−2, first dose, N=6, mean (s.d.)
Structures can show the parent of a compound that is named as a salt.
REPORTED METRIC: AUC(0-inf) (ng·h/mL)
Expressed in ng·h/mL, but write only the number.

Q. Name the reported AUC(0-inf) value associated with the compound C=C1C[C@@H]2CC[C@@]34C[C@H]5O[C@H]6[C@@H](O3)[C@H]3O[C@H](CC[C@@H]3O[C@H]6[C@H]5O4)CC(=O)C[C@@H]3[C@@H](OC)[C@@H](C[C@H](O)CN)O[C@H]3C[C@H]3O[C@@H](CC[C@@H]1O2)C[C@@H](C)C3=C [Eribulin mesylate]
A. 1100

###

PROTOCOL DESCRIPTION: Eribulin plasma pharmacokinetics
Format: in vivo, human
COND: human, plasma, intravenous, 75 mg, T1/2, Dose level 6: eribulin mesylate 1.2 with cisplatin 75 mg m^−2, first dose, N=3, mean (s.d.)
Counter-ions that a name gives are not always drawn.
REPORTED METRIC: half-life (h)
Expressed in h, but write only the number.

Q. Name the reported half-life value associated with the compound C=C1C[C@@H]2CC[C@@]34C[C@H]5O[C@H]6[C@@H](O3)[C@H]3O[C@H](CC[C@@H]3O[C@H]6[C@H]5O4)CC(=O)C[C@@H]3[C@@H](OC)[C@@H](C[C@H](O)CN)O[C@H]3C[C@H]3O[C@@H](CC[C@@H]1O2)C[C@@H](C)C3=C [Eribulin mesylate]
A. 35.5

###

PROTOCOL DESCRIPTION: Eribulin plasma pharmacokinetics
Format: in vivo, human
COND: human, plasma, intravenous, 60 mg, Cmax, Dose level 5: eribulin mesylate 1.4 with cisplatin 60 mg m^−2, first dose, N=6, mean (s.d.)
Structures can show the parent of a compound that is named as a salt.
REPORTED METRIC: Cmax (ng/mL)
Expressed in ng/mL, but write only the number.

Q. Name the reported Cmax value associated with the compound C=C1C[C@@H]2CC[C@@]34C[C@H]5O[C@H]6[C@@H](O3)[C@H]3O[C@H](CC[C@@H]3O[C@H]6[C@H]5O4)CC(=O)C[C@@H]3[C@@H](OC)[C@@H](C[C@H](O)CN)O[C@H]3C[C@H]3O[C@@H](CC[C@@H]1O2)C[C@@H](C)C3=C [Eribulin mesylate]
A. 508

###

PROTOCOL DESCRIPTION: Eribulin plasma pharmacokinetics
Type: in vivo, human
COND: human, plasma, intravenous, 60 mg, Vss, Dose level 3: eribulin mesylate 1.2 with cisplatin 60 mg m^−2, first dose, N=4, mean (s.d.)
Counter-ions that a name gives are not always drawn.
REPORTED METRIC: Vd (L)
Expressed in L, but write only the number.

Q. Name the reported Vd value associated with the compound C=C1C[C@@H]2CC[C@@]34C[C@H]5O[C@H]6[C@@H](O3)[C@H]3O[C@H](CC[C@@H]3O[C@H]6[C@H]5O4)CC(=O)C[C@@H]3[C@@H](OC)[C@@H](C[C@H](O)CN)O[C@H]3C[C@H]3O[C@@H](CC[C@@H]1O2)C[C@@H](C)C3=C [Eribulin mesylate]
A. 51.4

###

PROTOCOL DESCRIPTION: Eribulin plasma pharmacokinetics
Format: in vivo, human
COND: human, plasma, intravenous, 75 mg, Vss, Dose level 6: eribulin mesylate 1.2 with cisplatin 75 mg m^−2, first dose, N=3, mean (s.d.)
Structures can show the parent of a compound that is named as a salt.
REPORTED METRIC: Vd (L)
Expressed in L, but write only the number.

Q. Name the reported Vd value associated with the compound C=C1C[C@@H]2CC[C@@]34C[C@H]5O[C@H]6[C@@H](O3)[C@H]3O[C@H](CC[C@@H]3O[C@H]6[C@H]5O4)CC(=O)C[C@@H]3[C@@H](OC)[C@@H](C[C@H](O)CN)O[C@H]3C[C@H]3O[C@@H](CC[C@@H]1O2)C[C@@H](C)C3=C [Eribulin mesylate]
A. 68.4

###

PROTOCOL DESCRIPTION: Eribulin plasma pharmacokinetics
Assay type: in vivo, human
COND: human, plasma, intravenous, 75 mg, CL, Dose level 6: eribulin mesylate 1.2 with cisplatin 75 mg m^−2, first dose, N=3, mean (s.d.)
Counter-ions that a name gives are not always drawn.
REPORTED METRIC: clearance

Q. Name the reported clearance value associated with the compound C=C1C[C@@H]2CC[C@@]34C[C@H]5O[C@H]6[C@@H](O3)[C@H]3O[C@H](CC[C@@H]3O[C@H]6[C@H]5O4)CC(=O)C[C@@H]3[C@@H](OC)[C@@H](C[C@H](O)CN)O[C@H]3C[C@H]3O[C@@H](CC[C@@H]1O2)C[C@@H](C)C3=C [Eribulin mesylate]
A. 36.7 mL/min

###

PROTOCOL DESCRIPTION: Eribulin plasma pharmacokinetics
Format: in vivo, human
COND: human, plasma, intravenous, 75 mg, AUC0-inf, Dose level 6: eribulin mesylate 1.2 with cisplatin 75 mg m^−2, first dose, N=3, mean (s.d.)
Where a name gives a salt, the structure may show the parent alone.
REPORTED METRIC: AUC(0-inf) (ng·h/mL)
Expressed in ng·h/mL, but write only the number.

Q. Name the reported AUC(0-inf) value associated with the compound C=C1C[C@@H]2CC[C@@]34C[C@H]5O[C@H]6[C@@H](O3)[C@H]3O[C@H](CC[C@@H]3O[C@H]6[C@H]5O4)CC(=O)C[C@@H]3[C@@H](OC)[C@@H](C[C@H](O)CN)O[C@H]3C[C@H]3O[C@@H](CC[C@@H]1O2)C[C@@H](C)C3=C [Eribulin mesylate]
A. 1030

###

PROTOCOL DESCRIPTION: Eribulin plasma pharmacokinetics
Assay type: in vivo, human
COND: human, plasma, intravenous, 75 mg, Cmax, Dose level 6: eribulin mesylate 1.2 with cisplatin 75 mg m^−2, first dose, N=3, mean (s.d.)
Counter-ions that a name gives are not always drawn.
REPORTED METRIC: Cmax (ng/mL)
Expressed in ng/mL, but write only the number.

Q. Name the reported Cmax value associated with the molecule C=C1C[C@@H]2CC[C@@]34C[C@H]5O[C@H]6[C@@H](O3)[C@H]3O[C@H](CC[C@@H]3O[C@H]6[C@H]5O4)CC(=O)C[C@@H]3[C@@H](OC)[C@@H](C[C@H](O)CN)O[C@H]3C[C@H]3O[C@@H](CC[C@@H]1O2)C[C@@H](C)C3=C [Eribulin mesylate]
A. 695
